target.entity: Kainate-type receptor
method.description: Binding assay of Kainate-type receptor (3H-kainic acid) on rat forebrain crude synaptic membrane
study.conditions: 2 nM 3H-Kainic acid, pH 7.1, 0° C., 90 min
Affinity to Kainate-type receptor (3H-KA), IC50 for assorted molecules
reported.metric: Affinity to Kainate-type receptor (3H-KA), IC50 (µM)

>>> quantitative_result("Cc1[nH]oc(=O)c1C[C@@H](N)C(=O)O")
98
>>> quantitative_result("N[C@@H](Cc1c[nH]oc1=O)C(=O)O [Compound 1, TAN-950A]")
3.6
>>> quantitative_result("N[C@@H](Cc1c[nH]oc1=O)C(=O)N1CCC[C@H]1C(=O)O")
6.8

----------
Each entry below carries its recorded minimal effective concentration.
Test system: neurons of rat hippocampus
method.description: Excitatory action on neurons of rat hippocampus in vitro (CA1 spike recording in slices)
Format: cell-based
study.conditions: Rattus norvegicus, Neuron, rat hippocampal slices, CA1 pyramidal cell layer, Krebs-Ringer solution 33° C.; read-out: Minimum effective concentration to induce firing of hippocampus nervous cell
reported.metric: minimal effective concentration

>>> result("N[C@@H](Cc1c[nH]oc1=O)C(=O)N1CCCCC1C(=O)O (some centres unmarked) [Compound 132]")
"≥ 300 µM"
>>> result("N[C@@H](Cc1c(-c2ccccc2)[nH]oc1=O)C(=O)O [Compound 87]")
"30 µM"
>>> result("Cc1[nH]oc(=O)c1C[C@@H](N)C(=O)O [Compound 78]")
"≥ 30 µM"
>>> result("Cc1[nH]oc(=O)c1[C@@H](N)C(=O)O [Compound 155]")
"≥ 10 µM"
>>> result("N[C@@H](Cc1c(C2CC2)[nH]oc1=O)C(=O)O [Compound 173]")
"≥ 0.3 µM"

----------
Collected pIC50 values appear next to each entry.
target.entity: NMDA-type receptor
method.description: Binding assay of NMDA-type receptor (3H-CPP) on rat forebrain crude synaptic membrane
study.conditions: 10 nM 3H-CPP, pH 7.1, 0° C., 15 min; read-out: Affinity to NMDA-type receptor (3H-CPP), IC50
pIC50: −log10 of the molar value.
reported.metric: pIC50

>>> quantitative_result("N[C@@H](C(=O)O)c1c[nH]oc1=O")
5.24
>>> quantitative_result("N[C@@H](Cc1c[nH]oc1=O)C(=O)O [Compound 1, TAN-950A]")
4.72
>>> quantitative_result("N[C@@H](Cc1c[nH]oc1=O)C(=O)N1CCCCC1C(=O)O (stereo partly drawn)")
5.20
>>> quantitative_result("Cc1[nH]oc(=O)c1C[C@@H](N)C(=O)O")
4.17
>>> quantitative_result("N[C@@H](CNC(=O)[C@@H](N)Cc1c[nH]oc1=O)C(=O)O")
4.80
>>> quantitative_result("N[C@@H](Cc1c[nH]oc1=O)C(=O)NCCC(=O)O")
4.96
>>> quantitative_result("N[C@H](CNC(=O)[C@@H](N)Cc1c[nH]oc1=O)C(=O)O")
4.96
>>> quantitative_result("N[C@@H](Cc1c[nH]oc1=O)C(=O)NC[C@H](NC(=O)OCc1ccccc1)C(=O)O")
4.33
>>> quantitative_result("N[C@@H](Cc1c(C2CC2)[nH]oc1=O)C(=O)O")
4.89
>>> quantitative_result("Cc1[nH]oc(=O)c1[C@H](N)C(=O)O")
4.68
>>> quantitative_result("CCc1[nH]oc(=O)c1C[C@H](N)C(=O)O")
4.46

----------
target.entity: Quisqualate-type receptor
method.description: Binding assay of Quisqualate-type receptor (3H-AMPA) on rat forebrain crude synaptic membrane
study.conditions: 5 nM 3H-AMPA, pH 7.1, 0° C., 90 min; read-out: Affinity to Quisqulate-type receptor (3H-AMPA), IC50
Please use class 1 for IC50 under 6 µM and class 0 for everything else, ties included.

>>> qualitative_label("N[C@@H](Cc1c[nH]oc1=O)C(=O)NCCCCC(=O)O")
"class 1"
>>> qualitative_label("CCc1[nH]oc(=O)c1C[C@H](N)C(=O)O")
"class 1"
>>> qualitative_label("Cc1[nH]oc(=O)c1[C@@H](N)C(=O)O")
"class 0"
>>> qualitative_label("N[C@@H](CCC(=O)[O-])C(=O)[O-].[Na+].[Na+] [Glu-Na, sodium glutamate, reference compound]")
"class 1"
>>> qualitative_label("N[C@@H](Cc1c[nH]oc1=O)C(=O)O [Compound 1, TAN-950A]")
"class 1"
>>> qualitative_label("N[C@@H](Cc1c[nH]oc1=O)C(=O)NC[C@H](NC(=O)OCc1ccccc1)C(=O)O")
"class 0"
>>> qualitative_label("N[C@@H](Cc1c[nH]oc1=O)C(=O)NCCC(=O)O")
"class 0"
>>> qualitative_label("Cc1[nH]oc(=O)c1C[C@@H](N)C(=O)O")
"class 1"
>>> qualitative_label("CCc1[nH]oc(=O)c1[C@@H](N)C(=O)O")
"class 0"
>>> qualitative_label("N[C@H](Cc1c[nH]oc1=O)C(=O)O")
"class 0"
>>> qualitative_label("CC(C)c1[nH]oc(=O)c1[C@@H](N)C(=O)O")
"class 0"
>>> qualitative_label("N[C@@H](Cc1c[nH]oc1=O)C(=O)N[C@@H](Cc1ccc(O)cc1)C(=O)O")
"class 0"
>>> qualitative_label("Cc1[nH]oc(=O)c1[C@H](N)C(=O)O")
"class 0"
>>> qualitative_label("N[C@@H](Cc1c[nH]oc1=O)C(=O)N1CCCC(C(=O)O)C1 (stereo partly shown)")
"class 0"
>>> qualitative_label("N[C@@H](Cc1c(C2CC2)[nH]oc1=O)C(=O)O")
"class 1"
>>> qualitative_label("CCC[C@H](NC(=O)[C@@H](N)Cc1c[nH]oc1=O)C(=O)O")
"class 0"
>>> qualitative_label("N[C@H](CNC(=O)[C@@H](N)Cc1c[nH]oc1=O)C(=O)O")
"class 0"
>>> qualitative_label("Cc1[nH]oc(=O)c1C[C@H](N)C(=O)O")
"class 1"
>>> qualitative_label("CC(C)c1[nH]oc(=O)c1C[C@H](N)C(=O)O")
"class 1"
>>> qualitative_label("N[C@@H](CNC(=O)[C@@H](N)Cc1c[nH]oc1=O)C(=O)O")
"class 0"
>>> qualitative_label("N[C@@H](Cc1c[nH]oc1=O)C(=O)NCC(=O)O")
"class 0"
>>> qualitative_label("N[C@@H](Cc1c[nH]oc1=O)C(=O)N1CCCCC1C(=O)O (stereo partly shown)")
"class 1"

----------
Affinity to Kainate-type receptor (3H-KA), IC50 listing for selected compounds.
target.entity: Kainate-type receptor
method.description: Binding assay of Kainate-type receptor (3H-kainic acid) on rat forebrain crude synaptic membrane
study.conditions: 2 nM 3H-Kainic acid, pH 7.1, 0° C., 90 min
reported.metric: Affinity to Kainate-type receptor (3H-KA), IC50 (µM)

>>> quantitative_result("CCc1[nH]oc(=O)c1C[C@H](N)C(=O)O [Compound 81]")
17
>>> quantitative_result("N[C@@H](Cc1c[nH]oc1=O)C(=O)NCCCCC(=O)O [Compound 110]")
31
>>> quantitative_result("N[C@@H](Cc1c[nH]oc1=O)C(=O)NCCCC(=O)O [Compound 107]")
12
>>> quantitative_result("N[C@@H](Cc1c[nH]oc1=O)C(=O)NC[C@H](NC(=O)OCc1ccccc1)C(=O)O [Compound 63]")
22
>>> quantitative_result("N[C@@H](Cc1c[nH]oc1=O)C(=O)N1CCC(C(=O)O)CC1 [Compound 126]")
18
>>> quantitative_result("N[C@@H](Cc1c(C2CC2)[nH]oc1=O)C(=O)O [Compound 173]")
3.8
>>> quantitative_result("N[C@@H](Cc1c[nH]oc1=O)C(=O)NCCC(=O)O [Compound 69]")
5.2

----------
target.entity: Kainate-type receptor
method.description: Binding assay of Kainate-type receptor (3H-kainic acid) on rat forebrain crude synaptic membrane
study.conditions: 2 nM 3H-Kainic acid, pH 7.1, 0° C., 90 min
Experimental: The receptors of the exitatory amino acid (especially, glutamate) are classified into NMDA type, Quisqualate type and Kainate type. […] In the binding assay of the NMDA-type-receptor, samples of the synaptic membrane were incubated in the presence or absence of a test compound together with 10 nM ^3 H-CPP in 50 mM Tris hydrochloric acid buffer (pH 7.1, 0° C.) for 15 minutes. […] The radioactivity on the filter was measured by a conventional method. […]
Here the recorded Affinity to Kainate-type receptor (3H-KA), IC50 is given for each entry.
reported.metric: Affinity to Kainate-type receptor (3H-KA), IC50 (µM)

>>> quantitative_result("N[C@@H](Cc1c[nH]oc1=O)C(=O)N[C@@H](Cc1ccc(O)cc1)C(=O)O [Compound 135]")
43
>>> quantitative_result("CCC[C@H](NC(=O)[C@@H](N)Cc1c[nH]oc1=O)C(=O)O [Compound 51]")
51
>>> quantitative_result("CC(C)c1[nH]oc(=O)c1C[C@H](N)C(=O)O [Compound 84]")
67
